// data source = patent US20160257697A1

System: HCV replicon 1AY93H
test-method-notes: microbe, parasite or virus in culture
Assay type: cell-based, Hepatitis C virus (HCV)
experimental-conditions: read-out: 1A Y93H IC50; replicon 1AY93H; Replicon Assay A
pIC50: −log10 of the molar value.
Each entry gets no (0) if its pIC50 stays under 10, and yes (1) if its pIC50 is 10 or above.

Worked examples follow.
compound	assigned-class
COC(=O)N[C@H](C(=O)N1CCC[C@H]1c1ncc(-c2ccc3c(c2)OC(c2ccc(C4CC4)s2)n2c-3c(C)c3cc(-c4cnc([C@@H]5CCCN5C(=O)[C@@H](NC(=O)OC)C(C)C)[nH]4)ccc32)[nH]1)C(C)C (single isomer, unassigned) [Compound 21]	no (0)
COC(=O)NC(C(=O)N1CCC[C@H]1c1ncc(-c2cc(F)c3c(c2)OC(c2ccc(C4CC4)s2)n2c-3cc3cc(-c4cnc([C@@H]5CCCN5C(=O)[C@@H](NC(=O)OC)C5CCOCC5)[nH]4)ccc32)[nH]1)C(C)(C)F (single isomer, unassigned) [Compound 169]	yes (1)
COC(=O)NC(C(=O)N1CCC[C@H]1c1ncc(-c2cc(F)c3c(c2)OC(c2ccc(C4CC4)s2)n2c-3cc3cc(-c4cnc([C@@H]5CCCN5C(=O)[C@@H](NC(=O)OC)C(C)C)[nH]4)ccc32)[nH]1)C1CCOC(C)(C)C1 (single isomer, unassigned) [Compound 212]	no (0)

[ask] Check this compound for pIC50 at or above 10: COC(=O)NC(C(=O)N1CCC[C@H]1c1ncc(-c2cc(F)c3c(c2)OC(c2ccc(C4CC4)s2)n2c-3cc3cc(-c4cnc([C@@H]5CCCN5C(=O)[C@@H](NC(=O)OC)C(C)C)[nH]4)ccc32)[nH]1)C1CCOC(C)(C)C1 (single isomer, unassigned) [Compound 215]
[reply] yes (1)

[ask] Check this compound for pIC50 at or above 10: COC(=O)NC(C(=O)N1CCC[C@H]1c1ncc(-c2ccc3c(c2)cc2n3C(c3ccc(C4CC4)s3)Oc3cc(-c4cnc([C@@H]5CCCN5C(=O)[C@@H](NC(=O)OC)C(C)C)[nH]4)cc(F)c3-2)[nH]1)C1CN(C(=O)C2CC2)C1 (single isomer, unassigned) [Compound 267]
[reply] yes (1)

[ask] Check this compound for pIC50 at or above 10: COC(=O)NC(C(=O)N1CCC[C@H]1c1ncc(-c2cc(F)c3c(c2)OC(c2ccc(C4CC4)s2)n2c-3cc3cc(-c4cnc([C@@H]5CCCN5C(=O)C(NC(=O)OC)C5C[C@@H](C)O[C@@H](C)C5)[nH]4)ccc32)[nH]1)C1C[C@@H](C)O[C@@H](C)C1 (single isomer, unassigned) [Compound 304]
[reply] no (0)

[ask] Check this compound for pIC50 at or above 10: COC(=O)N[C@H](C(=O)N1CCC[C@H]1c1ncc(-c2cc(F)c3c(c2)OC(c2cc(F)c(C4CC4)s2)n2c-3cc3cc(-c4cnc([C@@H]5CCCN5C(=O)[C@@H](NC(=O)OC)C(C)C)[nH]4)ccc32)[nH]1)C(C)C (single isomer, unassigned) [Compound 71]
[reply] no (0)

[ask] Check this compound for pIC50 at or above 10: COC(=O)NC(C(=O)N1CCC[C@H]1c1ncc(-c2cc(F)c3c(c2)OC(c2ccc(C4CC4)s2)n2c-3cc3cc(-c4cnc([C@@H]5C[C@H]6C[C@H]6N5C(=O)[C@@H](NC(=O)OC)C(C)C)[nH]4)ccc32)[nH]1)C(C)(C)F (single isomer, unassigned) [Compound 100]
[reply] no (0)

[ask] Check this compound for pIC50 at or above 10: COC(=O)N[C@H](C(=O)N1CCC[C@H]1c1ncc(-c2cc(F)c3c(c2)OC(c2ccc(CCF)s2)n2c-3cc3cc(-c4cnc([C@@H]5CCCN5C(=O)[C@@H](NC(=O)OC)C(C)C)[nH]4)ccc32)[nH]1)C(C)C (single isomer, unassigned) [Compound 44]
[reply] yes (1)

[ask] Check this compound for pIC50 at or above 10: COC(=O)N[C@H](C(=O)N1CCC[C@H]1c1ncc(-c2cc(F)c3c(c2)OC(c2ccsc2)n2c-3cc3cc(-c4cnc([C@@H]5CCCN5C(=O)[C@@H](NC(=O)OC)C(C)C)[nH]4)ccc32)[nH]1)C(C)C (single isomer, unassigned) [Compound 318]
[reply] no (0)

[ask] Check this compound for pIC50 at or above 10: COC(=O)N[C@H](C(=O)N1[C@@H]2C[C@@H]2C[C@H]1c1ncc(-c2cc(F)c3c(c2)OC(c2ccc(C4CC4)s2)n2c-3cc3cc(-c4cnc([C@@H]5C[C@H]6C[C@H]6N5C(=O)[C@@H](NC(=O)OC)C(C)C)[nH]4)ccc32)[nH]1)C(C)C (single isomer, unassigned) [Compound 87]
[reply] yes (1)

[ask] Check this compound for pIC50 at or above 10: CCCc1ccc(C2Oc3cc(-c4cnc([C@@H]5CCCN5C(=O)[C@@H](NC(=O)OC)C(C)C)[nH]4)cc(F)c3-c3cc4cc(-c5cnc([C@@H]6CCCN6C(=O)[C@@H](NC(=O)OC)C6CCOCC6)[nH]5)ccc4n32)s1 (single isomer, unassigned) [Compound 347]
[reply] yes (1)
